Examples of binders with documented T½ follow.
Target: T1, human BCMA (human, UniProt Q02223 1-54)
T1 construct: also called huBCMA; hBCMA
T1 sequence: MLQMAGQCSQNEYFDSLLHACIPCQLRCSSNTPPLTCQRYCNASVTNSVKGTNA
Test: SPR, immobilised IgG, 25° C
Write down the numeric answer in min and omit the unit.

Answered cases to consult:
binder	readout label	measured
L3.PY/P6E01 (antibody, V domains shown, IgG in the assay) VH: EVQLLESGGGLVQPGGSLRLSCAASGFTFGSYAMTWVRQAPGKGLEWVSAISGSGGNTFYADSVKGRFTISRDNSKNTLYLQMNSLRAEDTAVYYCARVSPIASGMDYWGQGTLVTVSS VL: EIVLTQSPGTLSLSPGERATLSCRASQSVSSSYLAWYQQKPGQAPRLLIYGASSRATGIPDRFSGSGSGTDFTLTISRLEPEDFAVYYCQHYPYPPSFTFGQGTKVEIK	T½	50.7
L1.GDF/L3.PY/H3.AQ (antibody, V domains shown, IgG in the assay) VH: EVQLLESGGGLVQPGGSLRLSCAASGFTFGSYAMTWVRQAPGKGLEWVSAISGSGGNTFYADSVKGRFTISRDNSKNTLYLQMNSLRAEDTAVYYCARVSPIAAQMDYWGQGTLVTVSS VL: EIVLTQSPGTLSLSPGERATLSCRASQSVGDFYLAWYQQKPGQAPRLLIYGASSRATGIPDRFSGSGSGTDFTLTISRLEPEDFAVYYCQHYPYPPSFTFGQGTKVEIK	T½	0.86

### Prompt Quick check: T½ of L1.LGF/L3.PY/H3.AQ (antibody, V domains shown, IgG in the assay) VH: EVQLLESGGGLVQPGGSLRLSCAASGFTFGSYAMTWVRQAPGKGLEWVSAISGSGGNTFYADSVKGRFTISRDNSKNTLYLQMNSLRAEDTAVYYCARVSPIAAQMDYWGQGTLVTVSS VL: EIVLTQSPGTLSLSPGERATLSCRASQSLGSFYLAWYQQKPGQAPRLLIYGASSRATGIPDRFSGSGSGTDFTLTISRLEPEDFAVYYCQHYPYPPSFTFGQGTKVEIK ?
### Response 13
